# ASSAY PROTOCOL: 7 day stress stability, chemical stability by HPLC
# Format: physicochemical
# EXPERIMENTAL CONTEXT: 1 week stress test, conditions studied
REPORTED PROPERTY: Chemical stability

>  <MOLECULE>
CC(=O)N[C@H]1[C@H]([C@H](O)[C@H](O)CO)OC(O)(C(=O)O)C[C@@H]1O (stereo partly shown) [An embodiment of Form 2, N-acetylneuraminic acid]

>  <RESULT>
good

$$$$

----------
# ASSAY PROTOCOL: Approximate solvent solubility screen (aliquot addition)
# Format: physicochemical
# EXPERIMENTAL CONTEXT: 40 °C, organic solvent or mixture, thermodynamic from solid; solvent: 1-Butanol
REPORTED PROPERTY: solubility

Noted for CC(=O)N[C@H]1[C@H]([C@H](O)[C@H](O)CO)OC(O)(C(=O)O)C[C@@H]1O (stereo partly shown) : its solubility reads < 6100 µg/mL

Provenance of the data: patent US10385085B2
